experiment_notes: in vitro
condition_info: human, Caco-2, Caco-2 (cm/sec)
Where a SMILES comes first, the peptide text is derived from it. Bridges are numbered along the chain shown (N, C = ends). [ ]: non-standard residue; d: D form. The star is where a group is joined. NMeF = CN[C@@H](Cc1ccccc1)C(=O)O; NMeL = CN[C@@H](CC(C)C)C(=O)O; NMeA = CN[C@@H](C)C(=O)O; Piperidide = C1CCN(*)CC1; Sar = CNCC(=O)O
measurement_label: Papp (×10⁻⁶ cm/s)
Field: numeric (×10⁻⁶ cm/s). Do not append units.

QUERY: Endpoint output: Papp of CC(C)C[C@@H]1NC(=O)[C@H](CC(C)C)N(C)C(=O)[C@H](C)N(C)C(=O)[C@@H](C(C)C)NC(=O)C[C@@H](C(=O)N2CCCCC2)NC(=O)[C@H]([C@@H](C)O)NC(=O)[C@H](C)N(C)C(=O)CN(C)C(=O)[C@H](CC(C)C)N(C)C(=O)[C@H](Cc2c[nH]c3ccccc23)NC(=O)[C@H](Cc2ccccc2)N(C)C1=O [pd100] ([dV][NMeA][NMeL]L[NMeF]W[NMeL][Sar][NMeA]TD-Piperidide; lactam N-11) . Value?
RESULT: 0.11
